# Test Protocol: Toxicity liver stage against HepG2, at 10uM
# Type: cell-based
# Design: test concentration 10 uM, cell line HepG2-A16-CD81EGFP
# Particulars: human, HepG2-A16-CD81EGFP cells; read-out: INHIBITION
Property Measured: cytotoxicity at 10 µM (%)
Give the number; % is assumed, so skip it.

Study these solved cases before continuing.
>>> recorded_value("COc1ccc(C(C)NCc2c[nH]nc2C)cc1Br (stereo unspecified)")
-5.57
>>> recorded_value("CCc1cccc(N2CCC(NC(=O)C3CCC3)CC2)c1")
3.6
>>> recorded_value("Cc1nc(CN2CCCC(CCc3c(F)cccc3F)C2)c[nH]1 (stereo unspecified)")
-21
>>> recorded_value("CC(C)N1CCC(N2CCN(C3CCCCC3)CC2CCO)CC1 (stereo unspecified)")
-9.63
>>> recorded_value("CCCNC(=O)c1sccc1N(C)S(=O)(=O)c1ccc(Cl)cc1")
9.22

Turning now to a further record.
Briefly, cytotoxicity at 10 µM measured for CCc1ccc(C(=O)NCc2ccnc(N3CCN(C)CC3)c2)o1 : -9.07

====

# Test Protocol: Toxicity liver stage against HepG2, at 10uM
# Assay type: cell-based
# Design: test concentration 10 uM, cell line HepG2-A16-CD81EGFP
# Particulars: human, HepG2-A16-CD81EGFP cells; read-out: INHIBITION
Property Measured: cytotoxicity at 10 µM (%)
Give the number; % is assumed, so skip it.

Briefly, cytotoxicity at 10 µM measured for CCc1ncc(CN2CCN(c3cc(NC4CC4)nc(N)n3)CC2)cn1 : -3.44

Briefly, cytotoxicity at 10 µM measured for Cn1c(Cn2ccnc2)nnc1C1CCN(C(=O)c2ccccn2)CC1 : -104

Briefly, cytotoxicity at 10 µM measured for Cc1cc(C)cc(C(=O)NCCCC2(C3OCCO3)CCOCC2)c1 : 9.4

Briefly, cytotoxicity at 10 µM measured for COCCCn1ccc(NS(=O)(=O)c2cc(C)c(F)cc2F)n1 : 20.1

Briefly, cytotoxicity at 10 µM measured for c1ccc(Cn2cc(CNCC3CNc4ccnn4C3)cn2)cc1 (stereo not drawn) : -11.6

Briefly, cytotoxicity at 10 µM measured for COCCN1CCC(CN(CC2CCCO2)C(=O)CCC(F)(F)F)CC1 (stereo not drawn) : 2.13

Briefly, cytotoxicity at 10 µM measured for CCOCCN1CCN(CC(=O)NC2(C#N)CCCC2)CC1C (stereo not drawn) : 5.33

Briefly, cytotoxicity at 10 µM measured for Cc1csc(C2CCCCN2C(=O)CCCn2cncn2)n1 (stereo not drawn) : -8.23

====

// reported cytotoxicity at 10 µM per item
# Test Protocol: Toxicity liver stage against HepG2, at 10uM
# Assay type: cell-based
# Design: test concentration 10 uM, cell line HepG2-A16-CD81EGFP
# Particulars: human, HepG2-A16-CD81EGFP cells; read-out: INHIBITION
Give the number; % is assumed, so skip it.

Study these solved cases before continuing.
>>> recorded_value("COc1ccc(CC(=O)N2CCCCC2Cn2cc(C)cn2)cc1F (stereo not drawn)")
-14.1
>>> recorded_value("O=S(=O)(C1CC1)N1CCC2(CCCN(c3ncccn3)C2)C1 (stereo not drawn)")
-4.02
>>> recorded_value("CC(C)(C)C(O)CN1CCN(C(=O)c2cccc3ncccc23)CC1 (stereo not drawn)")
4.67
>>> recorded_value("O=C(c1ccco1)N1CCO[C@@H]2CN(CC3CC3)CC[C@@H]2C1")
-67.9

Turning now to a further record.
Briefly, cytotoxicity at 10 µM measured for Cc1nc(C)n(CC2CCCN2Cc2nc(C3CC3)no2)n1 (stereo not drawn) : -12.5
